The values you see were collected from patent US20240425589A1.

molecular target: T1, recombinant human CD3 (human CD3eg linker) (Homo sapiens, UniProt P07766+P09693); test: Biacore T200 SPR affinity of Dual-Fab antibodies to human CD3; type: binding; conditions: 25 degrees C, pH 7.4
T1 construct: made in house; host or cells: FreeStyle293F
T1 sequence (P07766+P09693 fused): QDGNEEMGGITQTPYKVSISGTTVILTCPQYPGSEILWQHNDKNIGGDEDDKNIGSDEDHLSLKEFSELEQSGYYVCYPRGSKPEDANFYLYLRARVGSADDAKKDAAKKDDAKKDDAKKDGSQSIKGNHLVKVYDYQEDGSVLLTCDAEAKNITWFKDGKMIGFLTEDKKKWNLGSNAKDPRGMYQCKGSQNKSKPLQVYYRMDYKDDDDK
Field: CD3 Koff. Provide a value for each of the molecules that follow.
One number for each entry, in s⁻¹.

Molecule | CD3 Koff [s⁻¹]
H1673L0943: affinity matured Dual-Fab variant, VH SEQ ID NO 100, VL SEQ ID NO 146 (antibody, V domains shown) VH: QVQLVESGGGLVQPGRSLRLSCAASGFVFSNVWFHWVRQAPGKGLEWVAQIKDKWNAYADYYAPSVKERFTISRDDSKNSIYLQMNSLKTEDTAVYYCHYIHYASASTLLPAEGIDAWGQGTTVTVSS VL: DIVMTQSPLSLPVTPGEPASISCQPSEEVVHMNRNTYLHWYQQKPGQAPRLLIYKVSNLFPGVPDRFSGSGSGTDFTLKISRVEAEDVGVYYCAQGTHHPFTFGQGTKLEIK | 0.00116

Next molecule, CD3 Koff to be filled in.
Query block: Could you tell me which CD3 Koff is on file for H1649L0581: affinity matured Dual-Fab variant, VH SEQ ID NO 97, VL SEQ ID NO 143 (antibody, V domains shown) VH: QVQLVESGGGLVQPGRSLRLSCAASGFVFSNVWFHWVRQAPGKGLEWVAQIKDKYNAYADYYAPSVKERFTISRDDSKNSIYLQMNSLKTEDTAVYYCHYVHYASASTLLPAEGVDAWGQGTTVTVSS VL: DIVMTQSPLSLPVTPGEPASISCQPSQEVVHMNRNTYLHWYQQKPGQAPRLLIYKVSNRFPGVPDRFSGSGSGTDFTLKISRVEAEDVGVYYCAQGTSHPFTFGQGTKLEIK ?
Result block: 0.0336
